Biological target: UniProtKB Q8ILY1
Sequence (Q8ILY1 entry or part of it): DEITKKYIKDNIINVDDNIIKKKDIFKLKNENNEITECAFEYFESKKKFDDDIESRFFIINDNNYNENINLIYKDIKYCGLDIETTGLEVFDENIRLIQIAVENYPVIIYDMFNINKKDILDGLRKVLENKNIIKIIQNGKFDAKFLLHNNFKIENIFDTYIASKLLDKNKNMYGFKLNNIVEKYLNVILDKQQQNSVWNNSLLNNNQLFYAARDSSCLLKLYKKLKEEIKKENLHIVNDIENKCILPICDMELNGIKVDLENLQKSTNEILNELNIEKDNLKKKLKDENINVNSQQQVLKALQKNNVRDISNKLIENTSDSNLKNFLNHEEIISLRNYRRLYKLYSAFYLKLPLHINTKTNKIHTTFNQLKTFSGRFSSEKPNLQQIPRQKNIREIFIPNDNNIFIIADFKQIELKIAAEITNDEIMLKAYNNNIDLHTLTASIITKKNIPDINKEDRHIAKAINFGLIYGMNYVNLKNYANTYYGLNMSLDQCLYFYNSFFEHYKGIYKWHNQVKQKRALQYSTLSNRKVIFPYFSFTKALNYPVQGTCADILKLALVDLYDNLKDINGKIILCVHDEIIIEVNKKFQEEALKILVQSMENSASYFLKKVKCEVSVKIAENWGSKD
Experiment: Fluorescence-based high-throughput DNA polymerase assay (molecular beacon), primary screen and dose-response;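 further: test concentration in µM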
Assay type: biochemical
Conditions: DRC-2; 180'; concentration 20
Give Y when the value for % inhibition apPOL 180' is at least 40%. Give N when it is less.

1. CC(NC(=O)Cc1cc(=O)[nH]c(SCc2cccc(Cl)c2)n1)c1ccccc1 (centres unmarked); N

Asked: Threshold query (% inhibition apPOL 180' >= 40%) on CCCCC(=O)N1CCc2c(nc3cc(-c4ccccc4Cl)[nH]n3c2=O)C1
Given back: N

Asked: Threshold query (% inhibition apPOL 180' >= 40%) on O=C1NN(c2ccc(Cl)c(Cl)c2)C(=O)/C1=C/c1ccc(-c2ccc3c(c2)C(=O)OC3)o1
Given back: N

Asked: Threshold query (% inhibition apPOL 180' >= 40%) on OC(C#Cc1ccccc1)c1ccco1 (centres unmarked)
Given back: Y

###

Biological target: bacteriophage T4 DNA polymerase (Enterobacteria phage T4, UniProt P04415)
Construct: made in house
Sequence (P04415 1-898): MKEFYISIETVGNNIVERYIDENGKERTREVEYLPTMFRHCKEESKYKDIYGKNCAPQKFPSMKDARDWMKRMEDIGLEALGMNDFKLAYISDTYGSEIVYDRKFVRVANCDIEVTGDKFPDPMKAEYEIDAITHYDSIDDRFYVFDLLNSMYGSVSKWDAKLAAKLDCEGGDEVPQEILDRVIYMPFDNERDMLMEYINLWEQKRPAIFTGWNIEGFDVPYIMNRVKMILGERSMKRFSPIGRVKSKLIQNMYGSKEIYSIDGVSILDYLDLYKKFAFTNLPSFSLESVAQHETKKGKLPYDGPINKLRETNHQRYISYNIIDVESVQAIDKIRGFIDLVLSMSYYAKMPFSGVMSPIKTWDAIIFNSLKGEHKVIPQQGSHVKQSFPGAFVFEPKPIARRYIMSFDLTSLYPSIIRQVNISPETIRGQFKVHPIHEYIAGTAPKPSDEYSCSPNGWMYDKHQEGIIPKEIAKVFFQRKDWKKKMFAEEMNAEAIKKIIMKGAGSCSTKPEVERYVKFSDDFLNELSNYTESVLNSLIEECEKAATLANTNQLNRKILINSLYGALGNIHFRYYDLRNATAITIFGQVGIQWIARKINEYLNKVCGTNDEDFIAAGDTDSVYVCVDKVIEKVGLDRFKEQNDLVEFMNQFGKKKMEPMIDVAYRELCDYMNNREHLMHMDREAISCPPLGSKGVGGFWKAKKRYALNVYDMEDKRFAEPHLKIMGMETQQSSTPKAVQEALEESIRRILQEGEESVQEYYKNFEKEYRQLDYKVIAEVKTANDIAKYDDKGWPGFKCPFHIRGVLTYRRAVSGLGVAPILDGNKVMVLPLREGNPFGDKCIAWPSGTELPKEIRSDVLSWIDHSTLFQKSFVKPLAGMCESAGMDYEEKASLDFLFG
Assay: Counter-screen against bacteriophage T4 DNA polymerase
Assay type: biochemical
Conditions: DRC-2; read at 10'; concentration 80
Give yes when the value for % inhibition T4 10' 80 is at least 10%. Give no when it is less.

Example entries begin here.
1) Cc1nc(C)c2c(n1)N(CC1CCCCC1)C(=O)CC2; yes
2) CC(=O)OCC1=C(C(=O)[O-])N2C(=O)[C@@H](NC(=O)Cc3cccs3)[C@H]2SC1.[Na+]; yes
3) COc1ccc(C2CC(c3ccc(Cl)cc3Cl)Nc3nc(N)nn32)cc1OC (stereo not shown); no
4) CC(=O)Nc1cc(C(=O)c2cccs2)nn(-c2ccc(Cl)cc2)c1=O; no
5) O=C1CSC2=NC3=C(CCc4ccccc43)C(c3cccs3)N12 (stereo not shown); yes
6) COc1ccc(/C=C/c2cc(C(=O)O)c3ccccc3n2)cc1; yes

Asked: Threshold query (% inhibition T4 10' 80 >= 10%) on Nc1cc(Oc2ccc(O)c(N)c2)ccc1O
Given back: yes
